# assayExplanation: Stability in human liver S9 fraction assessed as half life at 2 uM by LC-MS/MS method
# Assay type: ADME, tissue-based
valueKind: half-life at 2 µM (min)
Just the number in min, nothing appended.

Which half-life at 2 µM reading was recorded for the compound CC(C)OC(=O)[C@H](C)NP(=O)(OC[C@H]1O[C@@H](n2ccc(=O)[nH]c2=O)C(Cl)(Cl)[C@@H]1O)Oc1ccc(C2(C)CC2)cc1 (single isomer, unassigned) ?
10

Which half-life at 2 µM reading was recorded for the compound CC(C)OC(=O)[C@H](C)NP(=O)(OC[C@H]1O[C@@H](n2ccc(=O)[nH]c2=O)C(Cl)(Cl)[C@@H]1O)Oc1cccc(C2(C)CC2)c1 (single isomer, unassigned) ?
4

Which half-life at 2 µM reading was recorded for the compound CC(C)OC(=O)[C@H](C)N[P@@](=O)(OC[C@H]1O[C@@H](n2ccc(=O)[nH]c2=O)C(Cl)(Cl)[C@@H]1O)Oc1ccccc1 ?
43

Which half-life at 2 µM reading was recorded for the compound CC[C@@H](C)OC(=O)[C@H](C)NP(=O)(OC[C@H]1O[C@@H](n2ccc(=O)[nH]c2=O)C(Cl)(Cl)[C@@H]1O)Oc1ccccc1 (single isomer, unassigned) ?
8
